# Test system: Neuropilin-2 / VEGF-C interaction (human)
# assay-explanation: inhibitors of NRP2–VEGF-C binding, biochemical, microplate binding format, z-score (AID 743281)
# reported-conditions: microplate NRP2/VEGF-C binding assay; stronger effect = lower value
One threshold, -0.2, splits the recorded z-score values: lower ones are 1 (yes), equal or higher ones are 0 (no).

Use the examples below as a reference point.
| compound | measurement-target | qualitative-label |
| --- | --- | --- |
| COCCOC(=O)C1=C(C)NC(C)=C(C(=O)OC(C)C)C1c1cccc([N+](=O)[O-])c1 (stereo unspecified) | Neuropilin-2 / VEGF-C interaction (human) | 0 (no) |
| CCOC(=O)[C@H](CCc1ccccc1)N[C@H]1CCc2ccccc2N(CC(=O)O)C1=O | Neuropilin-2 / VEGF-C interaction (human) | 1 (yes) |
| COc1cc2nc(N3CCN(C(=O)c4ccco4)CC3)nc(N)c2cc1OC | Neuropilin-2 / VEGF-C interaction (human) | 0 (no) |
| O=c1n(CCCN2CCN(c3cccc(Cl)c3)CC2)nc2ccccn12 | Neuropilin-2 / VEGF-C interaction (human) | 0 (no) |
| O=C1[C@H](CC[C@H](O)c2ccc(F)cc2)[C@@H](c2ccc(O)cc2)N1c1ccc(F)cc1 | Neuropilin-2 / VEGF-C interaction (human) | 1 (yes) |

Incoming: hey, is z-score for O=C(c1ccccc1)c1ccc2n1CCC2C(=O)O (stereo unspecified) lower than -0.2 or not?
Outgoing: 0 (no)

Incoming: hey, is z-score for `Nc1c2c(nc3ccccc13)CCCC2` lower than -0.2 or not?
Outgoing: 1 (yes)

====

# assay-explanation: stimulators of insulin release from INS-1E, primary screen, cell-based, 5 mM glucose, NPC library (AID 1117329); note: reference of the scale not given here
# reported-conditions: rat INS-1E insulin secretion, at 10 µM, stronger effect = higher value
quantity-kind: insulin secretion stimulation (%)
Give the number; % is assumed, so skip it.

Worked examples, 4 compounds total:
| compound | recorded-result |
| --- | --- |
| CC(C)C[C@@H](N)C(=O)O | -0.8 |
| CN1N=C(C(N)=O)CCC1=O | 1.05 |
| COc1cc(OC)nc(O[C@H](C(=O)O)C(OC)(c2ccccc2)c2ccccc2)n1 | 1 |
| Cc1onc(-c2ccccc2)c1C(=O)Cl | 2.75 |

Incoming: Returns the measured insulin secretion stimulation for the input compound. Input: `CN=C(N)NC(=O)Nc1c(C)cccc1C`
Outgoing: -1.2

Incoming: Returns the measured insulin secretion stimulation for the input compound. Input: `CCCCCCCC/C=C\CCCCCCCCN`
Outgoing: -0.6

Incoming: Returns the measured insulin secretion stimulation for the input compound. Input: `Cc1cc(N)c2cc(NC(=O)Nc3ccc4nc(C)cc(N)c4c3)ccc2n1`
Outgoing: 8.1

====

# assay-explanation: ICB984 medulloblastoma cell growth inhibition, synergistic combos for chromothripsis tumors, cisplatin or BGB combos (AID 1671451);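 note: cells exposed for 96 hours before readout; 0% = vehicle DMSO and 100% = killing by high DMSO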
# reported-conditions: ICB984 medulloblastoma cells, drug combinations, cisplatin combo, at 5 µM, stronger effect = higher value
quantity-kind: inhibition (%)
Give the number; % is assumed, so skip it.

Worked examples, 4 compounds total:
| compound | unit-name | inhibition |
| --- | --- | --- |
| CCN(CC)CCCC(C)Nc1c2ccc(Cl)cc2nc2ccc(OC)cc12 (stereo not given) | % | -21.6 |
| CCn1cc(C(=O)O)c(=O)c2cc(F)c(N3CCNCC3)cc21 | % | -17.2 |
| CC(=O)OCC(CCn1cnc2cnc(N)nc21)COC(C)=O | % | -37.5 |
| O=C(O)CCCc1ccccc1 | % | -20.8 |

Moving on to another compound below.
Incoming: Returns the measured inhibition for the input compound. Input: `O=c1[nH]cc(F)c(=O)[nH]1`
Outgoing: -4.18
